System: SF-268 CNS
Experiment: NCI tumour cell line growth inhibition, 48 h
quantity_kind: TGI

# annotated cases, reported TGI shown
                                   compound  assay_result
0  O=[N+]([O-])c1ccc(N=Nc2c(O)ccc3cc(S(=O)(=O)O)cc(S(=O)(=O)O)c23)cc1      > 100 µM
1  CN1CC[C@]2(C)c3c(O)cccc3CC3CCCC1C32C (stereo partly drawn)      > 100 µM
2  CC(C)(Cl)C(Cl)CC/C(CBr)=C(\Cl)CCl (stereo not drawn)       29.1 µM
3                  O=C1CCCn2c(nc3ccccc32)N1      > 100 µM

I'm hoping you can list TGI for every compound here, please.
1. Cc1ncc([N+](=O)[O-])n1CC(O)Cn1ccnc1[N+](=O)[O-] (stereo not drawn)
2. CSC1(C)CC2C(CC1N1CCCCC1)C2(C)C (stereo not drawn)
3. CC(NC(=O)C(CC(=O)OCc1ccccc1)NC(=O)OCc1ccccc1)c1ccccc1 (stereo not drawn)
4. CC1=C(C(=O)CC(=O)C(=O)Nc2cccc(Cl)c2C)Sc2ccccc2N1
5. O=C(Cc1csc2nc(-c3ccc(Br)cc3)cn12)N/N=C/c1cc(Br)ccc1O
6. CCOC1CN(C)C(=Nc2cccc3ccccc23)S1 (stereo not drawn)
7. O=C1OCC2=C1C(c1cccc(F)c1)c1cc3c(cc1N2CCO)CCC3 (stereo not drawn)
8. O=c1nc(Oc2c(F)c(F)c(F)c(F)c2F)ccn1C1OC(CO)C(O)C1O (stereo not drawn)

1: > 100 µM; 2: > 100 µM; 3: > 100 µM; 4: > 100 µM; 5: > 100 µM; 6: > 10 µM; 7: 25.2 µM; 8: > 100 µM

====

Test system: ACHN renal
Test: NCI tumour cell line growth inhibition, 48 h
quantity_kind: TGI

In [3]: df
Out[3]:
                                   compound  assay_result
0                 CC#Cc1nc2ccccc2c(=O)[nH]1       23.3 µM
1                  O=C1CCCn2c(nc3ccccc32)N1      > 100 µM
2             COC(=O)/C=C\n1ncc(=O)[nH]c1=O      > 100 µM
3                           CON(C)C(=O)CCCO      > 100 µM
4  Cc1nc(-c2nc(C)c(C(=O)/C=C/c3ccc(N(C)C)cc3)s2)sc1C(=O)/C=C/c1ccc(N(C)C)cc1      > 100 µM
5          Nc1nc(-c2cccc3ccccc23)cc2ccccc12       18.3 µM
6  CC(C(N)=O)N(C)C(=O)c1cc2ccccc2[n+](Cc2ccccc2)c1 (stereo unspecified)      > 100 µM
7  COC(=O)[C@@H](Nc1ccccc1)[C@@]1(C(=O)OC)SC12c1ccccc1-c1ccccc12      > 100 µM
8  CC1CC(c2ccc(Cl)cc2)=Nc2ccccc2S1 (stereo unspecified)      > 100 µM
9  COc1ccc(Nc2nc3cc(C(F)(F)F)ccc3nc2C(=O)O)cc1OC      > 100 µM

Could you now consider this next compound?
Give its TGI value. Item: O=C(C(=NC12CC3CC(CC(C3)C1)C2)NNc1ccc([N+](=O)[O-])cc1[N+](=O)[O-])C(Br)C(=O)c1ccccc1 (stereo unspecified)
> 10 µM

====

Tested on: NCI-H226 lung
Experiment: NCI tumour cell line growth inhibition, 48 h
Mark Not satisfied for TGI values under 50 µM, and Satisfied for everything at or above.

Please review the following examples before continuing.
>>> print(df.to_string())
                                   molecule    group_label
0  COc1ccc(C23c4ccc(OC)cc4CC2(c2ccc([N+](=O)[O-])cc2)Cc2cc(OC)ccc23)cc1 (centres undefined)      Satisfied
1         COc1c(Br)cc(Br)c(OC)c1-c1ccc[nH]1      Satisfied
2  Nc1nc2c(c3cnccc13)C(c1cccc(Br)c1)Cc1cnccc1-2 (centres undefined)  Not satisfied
3  CC12CCC(C(=O)n3c1nc1ccccc13)C(C)(C)O2 (centres undefined)      Satisfied
4  COc1ccc(C(OCC2OC(n3cnc4c(=O)n(Cc5ccccc5[N+](=O)[O-])nnc43)C(O)C2O)(c2ccccc2)c2ccc(OC)cc2)cc1 (centres undefined)  Not satisfied

Is TGI for "COc1cc2c(cc1O)N=C[C@@H]1C[C@@H](F)CN1C2=O" at or above 50 µM?
Not satisfied

Also check "COc1ccc2c(c1)O[C@@H]1c3ccc(OC)cc3OC[C@H]21"
Satisfied

Okay, and CC(NC(=O)C(C)C(=O)Nc1ccc(C(F)(F)F)cc1)C(N)=O (centres undefined) ?
Satisfied

Would you mind doing COC1C(CO)OC(n2c3ccccc3c3c4c(c5c6ccccc6[nH]c5c32)C(=O)NC4=O)C(OC(=O)C(N)CCCCN)C1O (centres undefined) as well?
Not satisfied

====

System: KM12 colon
Experiment: NCI tumour cell line growth inhibition, 48 h
quantity_kind: TGI

compound	target_or_test_system	assay_result
COc1ccc(C23c4ccc(OC)cc4CC2(c2ccc([N+](=O)[O-])cc2)Cc2cc(OC)ccc23)cc1 (stereo unspecified)	KM12 colon	> 100 µM
COc1ccc2c(c1OC)CN1CCc3cc4c(cc3C1C2)OCO4 (stereo unspecified)	KM12 colon	> 100 µM
O=C(O)c1ccccc1C1CCCc2c1[nH]c1ccccc21 (stereo unspecified)	KM12 colon	> 100 µM
Cc1c(NC(=O)c2cc(C(N)=O)nc3cc(F)ccc23)c(C(F)(F)F)nn1Cc1ccc(C#N)cc1	KM12 colon	> 37.9 µM
CN1C(NN)=NS(=O)(=O)c2ccccc21	KM12 colon	> 100 µM
O=C(Cc1csc2nc(-c3ccc(Br)cc3)cn12)N/N=C/c1cc(Br)ccc1O	KM12 colon	> 100 µM

Need TGI for each of these compounds.
1. Cc1cc(OCc2n[nH]c(=S)n2/N=C/c2ccc(F)cc2)ccc1Cl
2. O=C(C(=NC12CC3CC(CC(C3)C1)C2)NNc1ccc([N+](=O)[O-])cc1[N+](=O)[O-])C(Br)C(=O)c1ccccc1 (stereo unspecified)
3. O=C(O)/C=N/NC(=S)NC1CCCCC1
4. CCOC(=O)C=C1CCC2(CC1)OCCO2
5. CC1CC(c2ccc(Cl)cc2)=Nc2ccccc2S1 (stereo unspecified)
6. Nc1ccc2c(c1)Cc1cc(Cl)c(Cl)cc1-2
7. O=C1c2ccccc2C(=O)N1C/C=N/NS(=O)(=O)c1ccc2ccccc2c1
8. CC12CCC(C(=O)n3c1nc1ccccc13)C(C)(C)O2 (stereo unspecified)

["53.8 µM", "> 10 µM", "> 100 µM", "> 100 µM", "> 100 µM", "> 100 µM", "> 100 µM", "> 100 µM"]

====

System: UO-31 renal
Assay: NCI tumour cell line growth inhibition, 48 h
Lab note: compare TGI against 30 µM. Equal or greater, write condition met. Smaller, write condition not met.

# count of solved cases: 5
>>> print(df.to_string())
                                   compound        group_label
0  CN1CC[C@]2(C)c3c(O)cccc3CC3CCCC1C32C (stereo not given in full)      condition met
1  Cc1cc2c(cc1C)N1C(Cl)=C3CCCCC3=C(C#N)C1N2 (stereo not given)  condition not met
2           CN(C)C=C1C(=O)N(C)C(=O)N(C)C1=O      condition met
3  Cc1c(NC(=O)c2cc(C(N)=O)nc3cc(F)ccc23)c(C(F)(F)F)nn1Cc1ccc(C#N)cc1      condition met
4  COc1ccc(-c2[nH]c(=O)n(C3OC(CO)C(O)C(O)C3O)c(=O)c2C#N)cc1 (stereo not given)      condition met

In plain terms: is recorded TGI at least 30 µM for "O=c1c2sc3nc(NCCN4CCCCC4)ncc3c2ncn1-c1ccccc1" ?
condition met

Next entry: "O=C(O)c1ccccc1SCc1cccc2c(=O)c3ccc(Cl)cc3oc12"
condition met

Also CC(C)(Cl)C(Cl)CC/C(CBr)=C(\Cl)CCl (stereo not given) , if possible.
condition not met

Queued: "Nc1nc[n+](Cc2ccccc2CCO)c2nc[nH]c12"
condition met

Okay, and COc1ccc2c(c1)CC1Cc3cc(OC)c(OC)cc3CN1CC2 (stereo not given) ?
condition met

Field entry: "CCCCC/C=C\C=C1\C(=O)C=C[C@@H]1C/C=C\CCCC(=O)O"
condition not met

====

Tested on: XF 498 CNS
Assay: NCI tumour cell line growth inhibition, 48 h
quantity_kind: TGI

Take each entry in turn and give its TGI.
1. CON(C)C(=O)CCCO
2. CCOC(=O)N1C=NC23C(c4ccccc4)C(c4ccccc4)C12C(=O)N(C)C(=O)N3C (stereo unspecified)
3. O=C1c2ccccc2C(=O)N1C/C=N/NS(=O)(=O)c1ccc2ccccc2c1
4. O=C1C=CC(=O)c2c(O)c(CO)c(CO)c(O)c21

> 100 µM
> 100 µM
> 100 µM
0.665 µM

Need TGI for each of these compounds.
1. CCN(C1=CC(=O)NC2CCCCN12)c1ccccc1 (stereo unspecified)
2. CN1CC[C@]2(C)c3c(O)cccc3CC3CCCC1C32C (stereo partly specified)
3. O=C([O-])c1ccc2c(c1)-c1nc-2nc2[n-]c(nc3nc(nc4[n-]c(n1)c1ccc(C(=O)[O-])cc41)-c1ccc(C(=O)[O-])cc1-3)c1ccc(C(=O)[O-])cc21.[Gd+3].[K+]

> 100 µM
> 100 µM
> 100 µM

Please go through the list and note TGI for each compound.
1. Cc1[nH]c2c(C)cccc2c1C1Cc2ccccc2N1 (stereo unspecified)
2. C[C@]12CCc3nonc3C1CC[C@@H]1C2CC[C@]2(C)C(=O)CCC12 (stereo partly specified)

38.4 µM
45 µM

Please state, for each entry, its recorded TGI.
1. CC1=NC(C(=O)O)Cc2c1[nH]c1ccccc21 (stereo unspecified)
2. CCOC(=O)C=C1CCC2(CC1)OCCO2

1. > 100 µM
2. > 100 µM

meta.source: PubChem BioAssay (NCI)
